target: hTRF1 (DNA-binding domain) (Homo sapiens, UniProt P54274 P54274:371-439); assay: SPR; 10 mM HEPES-KOH pH 6.8, 3 mM EDTA, 180 mM KCl, 0.003% Triton X-100, 293 K; settings: label: biotin (13mer on SA chip)
Sequence (P54274 371-439, one chain of several): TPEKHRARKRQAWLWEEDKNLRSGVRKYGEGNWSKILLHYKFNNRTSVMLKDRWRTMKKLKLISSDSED
Property label: Kd (nM)
Kindly provide the numeric value in nM only, without the unit symbol.

Consider the binder tr13 (dsDNA) DNA 1: GTTAGGGTTAGGG DNA 2: CCCTAACCCTAAC and give its measured Kd. 186
